Could you please report measured pIC50 for the items listed next?
Biological target: UniProt:P00374
Sequence (P00374 whole entry): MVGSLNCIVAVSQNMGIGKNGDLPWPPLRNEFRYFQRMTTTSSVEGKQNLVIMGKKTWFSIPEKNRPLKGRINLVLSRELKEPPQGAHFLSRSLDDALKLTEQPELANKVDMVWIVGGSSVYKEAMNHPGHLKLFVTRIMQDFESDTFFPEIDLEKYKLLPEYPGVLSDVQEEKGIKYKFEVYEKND
One number for each entry, as −log10 of the molar value.

| Smi | pIC50 |
| --- | --- |
| CC(=O)c1c(C)n(Cc2ccccc2)c2ccc(OCc3cn(-c4ccc(Br)cc4)nn3)cc12 | 3.90 |

// next entry
Ask: Item "CC(=O)c1c(C)n(Cc2ccccc2)c2ccc(OCc3cn(-c4cccc(Cl)c4)nn3)cc12" with UniProt:P00374 - pIC50?
Result: 3.74
